# system tested: VACV D9 decapping enzyme (Vaccinia virus, UniProt P04311)
# Construct: His-tag (C); made in house
# assay summary: biochemical
# Format: biochemical
Counter-ions that a name gives are not always drawn.
endpoint label: IC50 (µM)

>>> df
                                   compound  test_result
0  C[n+]1cn([C@@H]2O[C@H](COP(=O)([O-])OP(=O)(O)O)[C@@H](O)[C@H]2O)c2nc(N)[nH]c(=O)c21         14.2
1  Nc1nc2ccc(Cl)cc2c2nc(-c3ccco3)nn12 [CGS-15943, reference compound]         20.1
2  COc1cc(NS(C)(=O)=O)ccc1Nc1c2ccccc2nc2ccccc12 [amsacrine hydrochloride, reference compound]         12.6
3  Nc1nc2c(cnn2CCc2ccccc2)c2nc(-c3ccco3)nn12 [SCH 58261, reference compound]          4.5

###

# system tested: VACV D9 decapping enzyme (Vaccinia virus, UniProt P04311)
# Construct: His-tag (C); made in house
# assay summary: biochemical
# Format: biochemical
# measurement conditions: in-house nucleotide library (Table S1, Figure 3); 3 μM probe 1b, 5 nM D9, 30 °C; means of 3 independent experiments ± SEM; read-out: IC50, nucleotide-derived compounds, FLINT HTS assay
Label class 1 when IC50 is strictly below 20 µM; at or above that, label class 0.

compound	class label
Cn1c[n+]([C@@H]2O[C@H](COP(=O)([O-])OP(=O)(O)OP(=O)(O)O)[C@@H](O)[C@H]2O)c2nc(N)[nH]c(=O)c21	class 1
CO[C@H]1[C@@H](O)[C@H]([n+]2cn(C)c3c(=O)[nH]c(N)nc32)O[C@@H]1COP(=O)([O-])OP(=O)(O)OP(=O)(O)OC[C@H]1O[C@@H](n2cnc3c(=O)[nH]c(N)nc32)[C@H](O)[C@@H]1O	class 1
C[n+]1cn([C@@H]2O[C@H](COP(O)(=S)OP(=O)(O)OP(=O)(O)O)[C@@H](O)[C@H]2O)c2nc(N)[nH]c(=O)c21 (stereo partly drawn)	class 1
C[n+]1cn(C2OC(COP(=O)(O)OP(=O)([O-])C(Cl)(Cl)P(=O)(O)OP(=O)(O)OCC3OC(n4cnc5c(=O)[nH]c(N)nc54)C(O)C3O)C(O)C2O)c2nc(N)nc(O)c21 (stereo not drawn)	class 0
Nc1ncnc2c1ncn2[C@@H]1O[C@H](COP(=O)(O)OP(=O)(O)OP(=O)(O)OC[C@@H]2O[C@H](n3cnc4c(N)ncnc43)[C@@H](O)[C@H]2O)[C@@H](O)[C@H]1O	class 0
CNc1ncnc2c1ncn2[C@@H]1O[C@H](COP(=O)(O)OP(=O)(O)OP(=O)(O)OC[C@H]2O[C@@H](n3c[n+](C)c4c(=O)[nH]c(N)nc43)[C@H](O)[C@@H]2O)[C@@H](OP(=O)(O)OC[C@H]2O[C@@H](n3cnc4c(=O)[nH]c(N)nc43)[C@H](O)[C@@H]2O)[C@H]1O	class 1
Cn1c[n+]([C@@H]2O[C@H](COP(=O)(O)O)[C@@H](O)[C@H]2O)c2nc(N)[nH]c(=O)c21	class 0
Nc1nc2c(ncn2[C@@H]2O[C@H](COP(=O)(O)OP(=O)(O)OP(=O)(O)OC[C@H]3O[C@@H](n4cnc5c(=O)[nH]c(N)nc54)[C@H](O)[C@@H]3O)[C@@H](O)[C@H]2O)c(=O)[nH]1	class 0

###

Measured pIC50, listed per entry for reference.
# system tested: VACV D9 decapping enzyme (Vaccinia virus, UniProt P04311)
# Construct: His-tag (C); made in house
# assay summary: biochemical
# Type: biochemical
# measurement conditions: read-out: IC50, nucleotide-derived compounds, FLINT HTS assay; in-house nucleotide library (Table S1, Figure 3); 3 μM probe 1b, 5 nM D9, 30 °C; means of 3 independent experiments ± SEM
pIC50: −log10 of the molar value.

molecule	pIC50
CO[C@@H]1[C@H](OP(=O)(O)OC[C@H]2O[C@@H](n3cnc4c(=O)[nH]c(N)nc43)[C@H](O)[C@@H]2O)[C@@H](COP(=O)(O)OP(=O)([O-])OP(=O)(O)OC[C@H]2O[C@@H](n3c[n+](C)c4c(=O)[nH]c(N)nc43)[C@H](O)[C@@H]2OC)O[C@H]1n1cnc2c(=O)[nH]c(N)nc21	5.41
C[n+]1cn([C@@H]2O[C@H](COP(=O)(O)CP(=O)([O-])OP(=O)(O)O)[C@@H](O)[C@H]2O)c2nc(N)nc(O)c21	6.24
C[n+]1cn([C@@H]2O[C@H](COP(=O)([S-])OP(=O)(O)OP(=O)(O)OP(=O)([S-])OC[C@H]3O[C@@H](n4c[n+](C)c5c(O)nc(N)nc54)[C@H](O)[C@@H]3O)[C@@H](O)[C@H]2O)c2nc(N)nc(O)c21 (stereo partly shown)	5.44

###

# system tested: VACV D9 decapping enzyme (Vaccinia virus)
# Construct: His-tag (C); made in house
# assay summary: biochemical
# Assay type: biochemical
# measurement conditions: in-house nucleotide library (Table S1, Figure 3); 3 μM probe 1b, 5 nM D9, 30 °C; means of 3 independent experiments ± SEM; read-out: IC50, nucleotide-derived compounds, FLINT HTS assay
Entries and their IC50
endpoint label: IC50 (µM)

compound	relational operator	test result
C[n+]1cn([C@@H]2O[C@H](COP([O-])(=S)OP(=O)(O)O)[C@@H](O)[C@H]2O)c2nc(N)[nH]c(=O)c21 (some centres unmarked) [m7GDPαS D1]	=	8.3
Nc1ncnc2c1ncn2[C@@H]1O[C@H](COP(O)(=S)OP(=O)(O)OP(O)(=S)OC[C@H]2O[C@@H](n3cnc4c(N)ncnc43)[C@H](O)[C@@H]2O)[C@@H](O)[C@H]1O (some centres unmarked)	>	100
Nc1nc2c(ncn2[C@@H]2O[C@H](COP(=O)(O)OP(=O)(O)OP(=O)(O)O)[C@@H](O)[C@H]2O)c(=O)[nH]1 [GTP, reference compound]	=	15.4
Cc1n([C@@H]2O[C@H](COP(=O)(O)OP(=O)(O)OP(=O)(O)O)[C@@H](O)[C@H]2O)c2nc(N)[nH]c(=O)c2[n+]1C	=	42.9
C[n+]1cn(C2OC(COP(=O)([O-])OP(=O)(O)OP(=O)(O)OP(=O)(O)OP(=O)(O)OCC3OC(n4cnc5c(=O)[nH]c(N)nc54)C(O)C3O)C(O)C2O)c2nc(N)[nH]c(=O)c21 (centres unmarked)	=	13.9
CO[C@@H]1[C@H](OP(=O)(O)OC[C@H]2O[C@@H](n3cnc4c(=O)[nH]c(N)nc43)[C@H](O)[C@@H]2O)[C@@H](COP(=O)(O)CP(=O)(O)OP(=O)([O-])OC[C@H]2O[C@@H](n3c[n+](C)c4c(O)nc(N)nc43)[C@H](O)[C@@H]2O)O[C@H]1n1cnc2c(N)ncnc21	=	27.4
Nc1nc2c(ncn2[C@@H]2O[C@H](COP(=O)(O)OP(=O)(O)OP(=O)(O)OC[C@H]3O[C@@H](n4cnc5c(N)ncnc54)[C@H](O)[C@@H]3O)[C@@H](O)[C@H]2O)c(=O)[nH]1	>	100
CO[C@@H]1[C@H](O)[C@@H](COP(=O)(O)OP(=O)(O)OP(=O)(O)OC[C@H]2O[C@@H]([n+]3cn(C)c4c(=O)[nH]c(N)nc43)[C@H](O)[C@@H]2O)O[C@H]1n1cnc2c(N)ncnc21	=	19.8
C[n+]1cn([C@@H]2O[C@H](COP(=O)([O-])OP(=O)(O)CP(=O)(O)O)[C@@H](O)[C@H]2O)c2nc(N)nc(O)c21	=	1.1
C[n+]1cn(C2OC(COP(=O)([O-])OP(=O)(O)OP(=O)(O)OCC3OC(n4cnc5c(=S)[nH]c(N)nc54)C(O)C3O)C(O)C2O)c2nc(N)[nH]c(=O)c21 (centres unmarked)	=	14.1
CNc1ncnc2c1ncn2[C@@H]1O[C@H](COP(=O)(O)OP(=O)(O)OP(=O)(O)OC[C@H]2O[C@@H](n3c[n+](C)c4c(=O)[nH]c(N)nc43)[C@H](O)[C@@H]2O)[C@@H](O)[C@H]1O	=	31.5
C[n+]1cn([C@@H]2O[C@H](COP(=O)(O)CP(=O)(O)OP(=O)(O)OC[C@H]3O[C@@H](n4cnc5c(=O)[nH]c(N)nc54)[C@H](O)[C@@H]3O)[C@@H](O)[C@H]2O)c2nc(N)[nH]c(=O)c21	=	16.8
C[n+]1cn([C@@H]2O[C@H](COP(O)(=S)OP(=O)(O)O)[C@@H](O)[C@H]2O)c2nc(N)[nH]c(=O)c21 (some centres unmarked) [m7GDPαS D2]	=	7.6
C[n+]1cn([C@@H]2O[C@H](COP(=O)(O)OP(=O)(O)OP(=O)(O)OC[C@H]3O[C@@H](n4c[n+](C)c5c(=O)[nH]c(N)nc54)[C@H](O)[C@@H]3O)[C@@H](O)[C@H]2O)c2nc(N)[nH]c(=O)c21	=	14.3
C[n+]1cn(C2OC(COP(=O)([O-])OP(=O)(O)C(F)(F)P(=O)(O)OP(=O)([O-])OCC3OC(n4c[n+](C)c5c(=O)[nH]c(N)nc54)C(O)C3O)C(O)C2O)c2nc(N)[nH]c(=O)c21 (centres unmarked)	=	14.7
Cc1n([C@@H]2O[C@H](COP(=O)(O)OP(=O)(O)O)[C@@H](O)[C@H]2O)c2nc(N)[nH]c(=O)c2[n+]1C	>	100
Cn1c[n+]([C@@H]2O[C@H](COP(=O)(O)OP(=O)(O)OP(=O)(O)OC[C@H]3O[C@@H](n4cnc5c(N)ncnc54)[C@H](O)[C@@H]3O)[C@@H](O)[C@H]2O)c2nc(N)[nH]c(=O)c21	=	33
C[n+]1cn(C2OC(COP(=O)(O)OP(=O)([O-])C(F)(F)P(=O)(O)OP(=O)(O)OCC3OC(n4cnc5c(=O)[nH]c(N)nc54)C(O)C3O)C(O)C2O)c2nc(N)nc(O)c21 (centres unmarked)	=	16.7
CO[C@@H]1[C@H](OP(=O)(O)OC[C@H]2O[C@@H](n3cnc4c(=O)[nH]c(N)nc43)[C@H](O)[C@@H]2O)[C@@H](COP(=O)(O)OP(=O)(O)OP(=O)([O-])OC[C@H]2O[C@@H]([n+]3cn(C)c4c(=O)[nH]c(N)nc43)[C@H](O)[C@@H]2O)O[C@H]1n1cnc2c(=O)[nH]c(N)nc21	=	12
Cn1c[n+]([C@@H]2O[C@H](COP(=O)(O)OP(=O)([O-])OP(=O)(O)OC[C@H]3O[C@@H](n4cnc5c(=O)[nH]c(N)nc54)[C@H](O)[C@@H]3O)[C@@H](O)[C@H]2O)c2nc(N)[nH]c(=O)c21	=	11.3
